Items are presented alongside their recorded In Vitro FAAH activity, 10 uM.
- Target Entity: FAAH (Rattus norvegicus)
- Construct: Frozen brains (without cerebellum) from Wistar rats were used; from tissue; host or cells: Wistar rat brain (without cerebellum), washed membrane pellets
- Sequence (P97612 whole entry): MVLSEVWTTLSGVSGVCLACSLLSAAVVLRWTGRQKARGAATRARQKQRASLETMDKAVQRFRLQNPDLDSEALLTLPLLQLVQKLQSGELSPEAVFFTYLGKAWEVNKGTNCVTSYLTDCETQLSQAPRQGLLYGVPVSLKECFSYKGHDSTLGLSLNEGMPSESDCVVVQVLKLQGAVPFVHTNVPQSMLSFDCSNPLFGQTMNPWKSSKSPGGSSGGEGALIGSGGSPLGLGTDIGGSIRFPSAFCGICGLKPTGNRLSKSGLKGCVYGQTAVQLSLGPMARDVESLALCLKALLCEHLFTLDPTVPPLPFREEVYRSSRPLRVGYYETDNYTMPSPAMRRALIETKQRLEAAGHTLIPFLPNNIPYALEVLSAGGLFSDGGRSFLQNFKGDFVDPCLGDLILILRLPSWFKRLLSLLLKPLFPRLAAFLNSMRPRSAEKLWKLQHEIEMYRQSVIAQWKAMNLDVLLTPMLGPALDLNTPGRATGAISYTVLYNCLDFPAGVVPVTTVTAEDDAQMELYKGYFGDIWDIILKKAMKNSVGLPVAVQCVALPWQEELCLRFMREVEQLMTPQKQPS
- Test Description: In vitro FAAH activity in rat brain membranes, 3H-AEA substrate, % of control
- Assay type: biochemical, Wistar rats
- Measurement Setup: 10 uM test compound, low value = strong inhibitor
Reported Property: In Vitro FAAH activity, 10 uM

Compound	Result
Cc1c(-c2ccccc2)ncn1C(=O)N(C)C1CCCCC1 [Compound 254]	109 % of control
COc1cccc(-c2cn(C(=O)N3CCCc4ccccc43)cn2)c1 [Compound 39]	16 % of control
CN(C(=O)n1nnc2ccc(Cl)cc21)c1ccccc1 [Compound 32]	0 % of control
CN(C(=O)n1nnc2cc(Cl)ccc21)c1ccccc1 [Compound 33]	0 % of control
CN(C(=O)n1cnc(-c2ccc(O)cc2)c1)c1ccccc1 [Compound 38]	0 % of control
CN(C(=O)n1cnc2ccccc21)c1ccccc1 [Compound 18]	67.9 % of control
CC1(C)COCN1C(=O)n1cnc(-c2ccccc2)c1 [Compound 161]	3.3 % of control
COc1ccc(N(C)C(=O)n2cnc(-c3ccc4ccccc4c3)c2)cc1 [Compound 16]	24.7 % of control
CN(C(=O)n1ccnc1)c1ccccc1 [Compound 2]	11.7 % of control
CN(C(=O)n1cnc(-c2ccc(O)cc2)c1)C1CCCCC1 [Compound 261]	0 % of control
CN(C(=O)n1cnc(-c2cccc(O)c2)c1)c1ccccc1 [Compound 40]	0.1 % of control
CN(C(=O)n1ccc(-c2cccnc2)n1)c1ccccc1 [Compound 24]	22.9 % of control
O=C(Nc1ccc(Oc2ccccc2)cc1)n1ccc(-c2ccccc2)n1 [Compound 10]	55 % of control
COc1ccc(-c2cn(C(=O)N3COCC3(C)C)cn2)cc1OC [Compound 216]	38.3 % of control
CN(C(=O)n1cncn1)c1ccccc1 [Compound 7]	0 % of control
COc1ccc(N(C)C(=O)n2cnc(-c3ccccc3)c2)cc1 [Compound 17]	65 % of control
O=C(N1CCOCC1)n1cnc(-c2ccccc2)c1 [Compound 3]	4.8 % of control
O=C(N1CCCc2ccccc21)n1cnc(-c2ccccc2)c1 [Compound 37]	51.7 % of control
CC1(C)COCN1C(=O)n1cnc2ccccc21 [Compound 219]	50.6 % of control
CN(C(=O)n1ccc(-c2ccccc2)n1)c1ccccc1 [Compound 12]	86 % of control
COc1cccc(NC(=O)n2ccc(-c3ccc(-c4ccccc4)cc3)n2)c1 [Compound 22]	95.8 % of control
O=C(N1CCN(c2ccccc2)CC1)n1nnc2ccccc21 [Compound 41]	0 % of control
CN(C(=O)n1cnc(-c2ccc3ccccc3c2)c1)c1ccccc1 [Compound 14]	0 % of control
COc1ccc(-c2cn(C(=O)N(C)C3CCCCC3)cn2)cc1OC [Compound 217]	0 % of control
CN(C(=O)n1cnc(-c2ccc(F)cc2)c1)c1ccccc1 [Compound 29]	0 % of control
CN(C(=O)n1cnc(-c2ccccc2F)c1)c1ccccc1 [Compound 30]	0.1 % of control
O=C(N1CCOCC1)n1ccc(-c2ccccc2)n1 [Compound 13]	89.7 % of control
CN(C(=O)n1cnc(-c2ccc(Cl)cc2)c1)c1ccc(F)cc1 [Compound 43]	0.1 % of control
O=C(Nc1ccc(OCc2ccccc2)cc1)n1ccc(-c2ccccc2)n1 [Compound 11]	82.6 % of control
O=C(N1CCOCC1)n1ccnc1 [Compound 1, (1H-imidazol-1-yl)(morpholino)methanone]	62.6 % of control
O=C(Nc1ccccc1)n1cccn1 [Compound 9, N-phenyl-1H-pyrazole-1-carboxamide]	78.6 % of control
CN(C(=O)n1cccn1)c1ccccc1 [Compound 8]	13.2 % of control
COc1ccc(-c2cn(C(=O)N(C)c3ccccc3)cn2)cc1 [Compound 28]	0.7 % of control
COc1cccc(-c2cn(C(=O)N(C)c3ccccc3)cn2)c1 [Compound 31]	0 % of control
COc1ccc(-c2cn(C(=O)N(C)c3ccc(F)cc3)cn2)cc1 [Compound 36]	5 % of control
CC1(C)COCN1C(=O)n1cnc(-c2ccc(O)cc2)c1 [Compound 260]	37.3 % of control
COc1ccc(NC(=O)n2ccc(-c3ccccc3)n2)cc1 [Compound 6]	91.1 % of control
CN(C(=O)n1cnc(-c2ccc(-c3ccccc3)cc2)c1)c1ccccc1 [Compound 35]	103.1 % of control
CN(C(=O)n1nnc2ccccc21)c1ccccc1 [Compound 34]	0 % of control
